B1: NOTCH4 peptide 1604-1619 (Neurogenic locus notch homolog protein 4), 16-mer library wild type / NSP9 (ORF1ab Nsp9, residues 4141-4253) (parent)
chain 1: TFQGAWLGAPEPWEPL
chain 2: NNELSPVALRQMSCAAGTTQTACTDDNALAYYNTTKGGRFVLALLSDLQDLKWARFPKSDGTGTIYTELEPPCRFVTDTPKGPKVKYLYFIKGLNNLNRGMVLGSLAATVRLQ

# Variants of: B1
# Cond: with NSP9 (ORF1ab Nsp9, residues 4141-4253); bait immobilised on MaxiSorp plates (10 µg), library pre-cleared on GST, 2 h binding at 4 °C, five washes; one round per day, days 1-4; value from days 2 and 3; keep out of graded; scale: average fractional NGS count over selection days 2 and 3

[
  {
    "Mutant Label": "chain 1 F2D",
    "screen value": "6.3e-05"
  },
  {
    "Mutant Label": "chain 1 P12T",
    "screen value": 0
  },
  {
    "Mutant Label": "chain 1 W13F",
    "screen value": 0
  },
  {
    "Mutant Label": "chain 1 L7M",
    "screen value": 0
  },
  {
    "Mutant Label": "chain 1 A5E",
    "screen value": 0
  },
  {
    "Mutant Label": "chain 1 E11Y",
    "screen value": 0
  },
  {
    "Mutant Label": "chain 1 L16G",
    "screen value": 0
  },
  {
    "Mutant Label": "chain 1 A5F",
    "screen value": "4.11e-05"
  },
  {
    "Mutant Label": "chain 1 F2P",
    "screen value": "6.51e-05"
  },
  {
    "Mutant Label": "chain 1 A9P",
    "screen value": 0
  },
  {
    "Mutant Label": "chain 1 G8K",
    "screen value": 0
  },
  {
    "Mutant Label": "chain 1 P12A",
    "screen value": "3.02e-05"
  },
  {
    "Mutant Label": "chain 1 F2W",
    "screen value": 0
  }
]
